Tested on: NCI-H2228
Test protocol: relative viability (nuclei count vs DMSO), 5 days (fraction); higher = more cells survive
Condition parameters: first compound 0.08 µM
Each entry below lists one item and its recorded relative viability value.
Recorded endpoint: relative viability

Compound | Recorded endpoint | Value
O=c1cc(-c2cccc3c2Sc2ccccc2S3)oc(N2CCOCC2)c1 + C[C@@H](Oc1cc(-c2cnn(C3CCNCC3)c2)cnc1N)c1c(Cl)ccc(F)c1Cl [Crizotinib] (partner 1 µM) | relative viability | 0.407
COc1nc(C)cnc1NS(=O)(=O)c1cccnc1-c1ccc(-c2nnco2)cc1 [Zibotentan] + CC(=O)c1c(C)c2cnc(Nc3ccc(N4CCNCC4)cn3)nc2n(C2CCCC2)c1=O [Palbociclib] (partner 0.5 µM) | relative viability | 0.762
O=c1cc(-c2cccc3c2Sc2ccccc2S3)oc(N2CCOCC2)c1 + Cc1cc(Nc2cc(N3CCN(C)CC3)nc(Sc3ccc(NC(=O)C4CC4)cc3)n2)n[nH]1 [Tozasertib] (partner 0.1 µM) | relative viability | 0.213
